Please provide measured pIC50 for the entries that follow.
- System: MRC5 normal cell line
- ASSAY_OVERVIEW: MTT cytotoxicity against normal cell line MRC5
- Assay type: cell-based
- CONDITION_INFO: Homo sapiens, MRC5; MTT assay, normal cell line
Answers are plain numbers, as −log10 of the molar value.

// known answers, use as guide
# COMPOUND, pIC50
data = [
    ("Cc1cccc(NC(=O)Nc2nnc(Sc3ncnc4sc5c(c34)CCN(Cc3ccccc3)C5)s2)c1 [Compound 11b]", 4.49),
    ("Cc1ccccc1NC(=O)Nc1nnc(Sc2ncnc3sc4c(c23)CCN(Cc2ccncc2)C4)s1 [Compound 11l]", 4.61),
    ("Cc1cccc(NC(=O)Nc2nnc(Sc3ncnc4sc5c(c34)CCN(Cc3ccncc3)C5)s2)c1 [Compound 11m]", 4.48),
    ("Cc1ccc(NC(=O)Nc2nnc(Sc3ncnc4sc5c(c34)CCN(Cc3ccncc3)C5)s2)cc1 [Compound 11n]", 4.42),
]

Then this compound:
Qu. Fill in: pIC50 of O=C(Nc1ccc(Cl)c(Cl)c1)Nc1nnc(Sc2ncnc3sc4c(c23)CCN(Cc2ccccc2)C4)s1 [Compound 11h] is ___
Ans. 4.38

###

- Test system: PC-3 (prostate cancer)
- ASSAY_OVERVIEW: MTT antiproliferative assay, PC-3
- Assay type: cell-based
- CONDITION_INFO: 48 h incubation
ENDPOINT_LABEL: IC50 (µM)
Answers are plain numbers, in µM.

# COMPOUND, ASSAYED_TARGET, ENDPOINT_LABEL, VALUE_UNITS, RESULT
data = [
    ("O=C(Nc1cccc(F)c1)Nc1nnc(Sc2ncnc3sc4c(c23)CCN(Cc2ccncc2)C4)s1 [Compound 11q]", "PC-3 (prostate cancer)", "IC50", "µM", 4.5),
    ("O=C(Nc1ccc(Cl)c(Cl)c1)Nc1nnc(Sc2ncnc3sc4c(c23)CCN(Cc2ccncc2)C4)s1 [Compound 11v]", "PC-3 (prostate cancer)", "IC50", "µM", 55.3),
    ("CNC(=O)c1cc(Oc2ccc(NC(=O)Nc3ccc(Cl)c(C(F)(F)F)c3)cc2)ccn1 [Sorafenib, reference compound]", "PC-3 (prostate cancer)", "IC50", "µM", 5.45),
    ("O=C(Nc1ccc(Cl)c(C(F)(F)F)c1)Nc1nnc(Sc2ncnc3sc4c(c23)CCN(Cc2ccncc2)C4)s1 [Compound 11y]", "PC-3 (prostate cancer)", "IC50", "µM", 4.37),
]

Consider the following items and state reported IC50 for each.
1. O=C(Nc1cccc(C(F)(F)F)c1)Nc1nnc(Sc2ncnc3sc4c(c23)CCN(Cc2ccccc2)C4)s1 [Compound 11j]
2. Cc1cccc(NC(=O)Nc2nnc(Sc3ncnc4sc5c(c34)CCN(Cc3ccncc3)C5)s2)c1 [Compound 11m]
3. O=C(Nc1ccccc1)Nc1nnc(Sc2ncnc3sc4c(c23)CCN(Cc2ccccc2)C4)s1 [Compound 11a]

Ans.
1: 73.8; 2: 11.8; 3: 34.4

###

ENDPOINT_LABEL: melting point

Below: 5 compounds and their reported melting point.
# COMPOUND, melting point
records = [
    ("Cc1cccc(NC(=O)Nc2nnc(Sc3ncnc4sc5c(c34)CCN(Cc3ccccc3)C5)s2)c1 [Compound 11b]", "138 to 139 °C"),
    ("COc1ccc(NC(=O)Nc2nnc(Sc3ncnc4sc5c(c34)CCN(Cc3ccccc3)C5)s2)cc1 [Compound 11d]", "280 to 282 °C"),
    ("O=C(Nc1cccc(C(F)(F)F)c1)Nc1nnc(Sc2ncnc3sc4c(c23)CCN(Cc2ccncc2)C4)s1 [Compound 11x]", "241 to 243 °C"),
    ("O=C(Nc1cccc(C(F)(F)F)c1)Nc1nnc(Sc2ncnc3sc4c(c23)CCN(Cc2ccccc2)C4)s1 [Compound 11j]", "181 to 183 °C"),
    ("O=C(Nc1ccc(Cl)c(Cl)c1)Nc1nnc(Sc2ncnc3sc4c(c23)CCN(Cc2ccccc2)C4)s1 [Compound 11h]", "190 to 192 °C"),
]

Count: 3. Required value per item: melting point.
1. COc1cccc(NC(=O)Nc2nnc(Sc3ncnc4sc5c(c34)CCN(Cc3ccncc3)C5)s2)c1 [Compound 11o]
2. O=C(Nc1nnc(Sc2ncnc3sc4c(c23)CCN(Cc2ccncc2)C4)s1)Nc1ccccc1Cl [Compound 11s]
3. O=C(Nc1ccc(Cl)cc1)Nc1nnc(Sc2ncnc3sc4c(c23)CCN(Cc2ccncc2)C4)s1 [Compound 11u]

Ans.
["191 to 193 °C", "229 to 231 °C", "188 to 190 °C"]

Would you mind listing melting point for each of the following compounds?
1. O=C(Nc1ccc(Cl)c(C(F)(F)F)c1)Nc1nnc(Sc2ncnc3sc4c(c23)CCN(Cc2ccncc2)C4)s1 [Compound 11y]
2. O=C(Nc1cccc(F)c1)Nc1nnc(Sc2ncnc3sc4c(c23)CCN(Cc2ccncc2)C4)s1 [Compound 11q]

Ans.
1. 257 to 260 °C
2. 243 to 246 °C

###

- System: HUVEC (human umbilical vein endothelial cell)
- ASSAY_OVERVIEW: MTT antiproliferative assay, HUVEC
- Assay type: cell-based
- CONDITION_INFO: Homo sapiens, HUVEC; MTT assay, 48 h incubation
Mark MET only when IC50 stays strictly below 20 µM. Values equal to the cut-off are NOT MET.

# COMPOUND, ASSIGNED_CLASS
data = [
    ("Cc1ccccc1NC(=O)Nc1nnc(Sc2ncnc3sc4c(c23)CCN(Cc2ccncc2)C4)s1 [Compound 11l]", "MET"),
    ("O=C(Nc1cccc(C(F)(F)F)c1)Nc1nnc(Sc2ncnc3sc4c(c23)CCN(Cc2ccccc2)C4)s1 [Compound 11j]", "NOT MET"),
    ("CNC(=O)c1cc(Oc2ccc(NC(=O)Nc3ccc(Cl)c(C(F)(F)F)c3)cc2)ccn1 [Sorafenib, reference compound]", "MET"),
    ("O=C(Nc1ccc(Cl)c(Cl)c1)Nc1nnc(Sc2ncnc3sc4c(c23)CCN(Cc2ccccc2)C4)s1 [Compound 11h]", "MET"),
    ("O=C(Nc1ccc(Cl)c(C(F)(F)F)c1)Nc1nnc(Sc2ncnc3sc4c(c23)CCN(Cc2ccccc2)C4)s1 [Compound 11k]", "NOT MET"),
    ("O=C(Nc1ccc(F)cc1)Nc1nnc(Sc2ncnc3sc4c(c23)CCN(Cc2ccccc2)C4)s1 [Compound 11f]", "NOT MET"),
]

Qu. Lab note: IC50 threshold 20 µM. Does this compound come in strictly under it? O=C(Nc1ccc(Cl)cc1)Nc1nnc(Sc2ncnc3sc4c(c23)CCN(Cc2ccccc2)C4)s1 [Compound 11g]
Ans. NOT MET

Qu. Please check: IC50 for O=C(Nc1ccc(Cl)cc1)Nc1nnc(Sc2ncnc3sc4c(c23)CCN(Cc2ccncc2)C4)s1 [Compound 11u] , strictly under 20 µM or not?
Ans. MET

Qu. Is the reported IC50 for COc1ccc(NC(=O)Nc2nnc(Sc3ncnc4sc5c(c34)CCN(Cc3ccccc3)C5)s2)cc1 [Compound 11d] strictly below 20 µM?
Ans. NOT MET

###

Kindly state melting point for each of the entries shown.

# COMPOUND, ENDPOINT_LABEL, RESULT
measured = [
    ("O=C(Nc1ccc(F)cc1)Nc1nnc(Sc2ncnc3sc4c(c23)CCN(Cc2ccccc2)C4)s1 [Compound 11f]", "melting point", "166 to 168 °C"),
    ("O=C(Nc1ccccc1)Nc1nnc(Sc2ncnc3sc4c(c23)CCN(Cc2ccccc2)C4)s1 [Compound 11a]", "melting point", "230 to 232 °C"),
    ("O=C(Nc1cccc(F)c1)Nc1nnc(Sc2ncnc3sc4c(c23)CCN(Cc2ccccc2)C4)s1 [Compound 11e]", "melting point", "144 to 146 °C"),
]

Now take the following compound into account.
Qu. Entry Cc1ccc(NC(=O)Nc2nnc(Sc3ncnc4sc5c(c34)CCN(Cc3ccncc3)C5)s2)cc1Cl [Compound 11w] has what melting point?
Ans. 157 to 159 °C

###

- Test system: PC-3 (prostate cancer)
- ASSAY_OVERVIEW: MTT antiproliferative assay, PC-3
- Assay type: cell-based
- CONDITION_INFO: 48 h incubation
ENDPOINT_LABEL: pIC50
One number for each entry, as −log10 of the molar value.

Some compounds with known pIC50 results, for comparison:
# COMPOUND, ENDPOINT_LABEL, RESULT
records = [
    ("COc1ccc(NC(=O)Nc2nnc(Sc3ncnc4sc5c(c34)CCN(Cc3ccccc3)C5)s2)cc1 [Compound 11d]", "pIC50", 4.36),
    ("O=C(Nc1cccc(F)c1)Nc1nnc(Sc2ncnc3sc4c(c23)CCN(Cc2ccccc2)C4)s1 [Compound 11e]", "pIC50", 4.37),
    ("Cc1cccc(NC(=O)Nc2nnc(Sc3ncnc4sc5c(c34)CCN(Cc3ccccc3)C5)s2)c1 [Compound 11b]", "pIC50", 4.33),
    ("O=C(Nc1ccc(F)cc1)Nc1nnc(Sc2ncnc3sc4c(c23)CCN(Cc2ccccc2)C4)s1 [Compound 11f]", "pIC50", 4.38),
    ("O=C(Nc1ccc(Cl)cc1)Nc1nnc(Sc2ncnc3sc4c(c23)CCN(Cc2ccncc2)C4)s1 [Compound 11u]", "pIC50", 5.30),
]

Consider the following items and state reported pIC50 for each.
1. Cc1ccccc1NC(=O)Nc1nnc(Sc2ncnc3sc4c(c23)CCN(Cc2ccncc2)C4)s1 [Compound 11l]
2. COc1cccc(NC(=O)Nc2nnc(Sc3ncnc4sc5c(c34)CCN(Cc3ccncc3)C5)s2)c1 [Compound 11o]
3. COc1ccc(NC(=O)Nc2nnc(Sc3ncnc4sc5c(c34)CCN(Cc3ccncc3)C5)s2)cc1 [Compound 11p]
4. O=C(Nc1ccc(Cl)c(C(F)(F)F)c1)Nc1nnc(Sc2ncnc3sc4c(c23)CCN(Cc2ccccc2)C4)s1 [Compound 11k]
5. O=C(Nc1ccc(F)cc1)Nc1nnc(Sc2ncnc3sc4c(c23)CCN(Cc2ccncc2)C4)s1 [Compound 11r]
6. O=C(Nc1cccc(Cl)c1)Nc1nnc(Sc2ncnc3sc4c(c23)CCN(Cc2ccncc2)C4)s1 [Compound 11t]

Ans.
1: 5.21; 2: 4.47; 3: 4.36; 4: 4.64; 5: 4.72; 6: 5.52
